Data provenance is patent US20240246946A1.

- system.name: full length human TREX1 (Homo sapiens)
- Construct: N-terminally His-Tev tagged full length human TREX1; made in house; host or cells: E. coli
- Sequence (Q9NSU2 whole entry): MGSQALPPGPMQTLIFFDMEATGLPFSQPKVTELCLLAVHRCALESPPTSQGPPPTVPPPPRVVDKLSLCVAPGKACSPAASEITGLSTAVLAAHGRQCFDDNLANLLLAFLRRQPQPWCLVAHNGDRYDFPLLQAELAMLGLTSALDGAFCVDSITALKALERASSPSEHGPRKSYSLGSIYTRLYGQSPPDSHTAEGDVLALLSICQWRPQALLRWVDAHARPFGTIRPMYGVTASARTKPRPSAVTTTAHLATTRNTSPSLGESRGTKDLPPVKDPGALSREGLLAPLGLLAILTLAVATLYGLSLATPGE
- test.summary: hTREX1 Biochemical Assay (fluorescence, dsDNA substrate degradation)
- experimental.context: biochemical, read-out: hTREX1 IC50
assay.endpoint: IC50

Completed entries (count: 2):
Cc1ncc(C(c2ccccc2Cl)C(C)c2nc(C(=O)Nc3cnoc3)c(O)c(=O)n2C)cn1 (single isomer, unassigned) [Example 44 D2E2]
> 10 nM
Cc1cnc(C)c(C(c2ccccc2C#N)C(C)c2nc(C(=O)Nc3cnoc3)c(O)c(=O)n2C)n1 (single isomer, unassigned) [Example 82 D2E2]
> 10 nM

Next molecule, please.
So what's the measured IC50 for this one? CC(c1nc(C(=O)Nc2cnoc2)c(O)c(=O)n1C)C(c1cnn(CC2CC2)c1)c1ccccc1C#N (single isomer, unassigned) [Example 23 D2E1] > 10 nM
